Readings of kon for the listed binders
- System name: T1, CHO human OPGL (hOPGL) 140 (human, UniProt O14788 140-317)
- T1 construct: also called CHO hOPGL 140
- T1 sequence (looked up): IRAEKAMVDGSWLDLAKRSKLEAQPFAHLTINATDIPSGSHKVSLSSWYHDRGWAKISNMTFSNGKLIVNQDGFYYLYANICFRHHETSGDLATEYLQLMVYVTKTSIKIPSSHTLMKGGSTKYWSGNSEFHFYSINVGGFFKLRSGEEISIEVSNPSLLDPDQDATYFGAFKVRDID
- Test protocol: SPR (BIAcore 2000), antibody captured on Protein G, hOPGL 140 in solution 0.25-62 nM, Langmuir 1:1
Assay metric: kon

>>> value_measured("18B2 anti-OPGL antibody (antibody, V domains shown, Fully human IgG1 kappa from HuMab mice) VH: EVQLVQSGGGLVHPGGSLRLSCVGSRFTFSAYPMHWVRQAPGKGLEWVSGIGSGGGTNYADSVKGRFTISRDTAKNSLYLQMNSLRAEDMAVYYCARGRNSFDYWGQGTLVTVSS VL: DIQMTQSPSSLSASVGDRVTITCRASQGISTWLAWYQQKPEKAPKSLIYAASSLQSGVPSRFSGSGSGTDFTLTISSLQPEDFATYYCQQYNSYPPTFGQGTKVEIKR")
"878000 M⁻¹ s⁻¹"
>>> value_measured("16E1 anti-OPGL antibody (antibody, V domains shown, Fully human IgG1 kappa from HuMab mice) VH: EVQLVQSGGGLVHPGGSLRLSCAGSGFTFSGHALHWVRQAPGKGLEWVSGIGTHGGTYYADSVKGRFTISRDNAKNSLFLQMNSLSAEDMAVYYCTRRNWGQFDYWGQGTLVTVSS VL: EIVLTQSPATLSLSPGERATLSCRASQSVSSYLAWYQQKPGQAPRLLIYDASNRATGIPARFSGSGSGTDFTLTISSLEPEDFAVYYCQQRSNWPPYTFGQGTKLEIKR")
"2.16e+06 M⁻¹ s⁻¹"
>>> value_measured("2E11 anti-OPGL antibody (antibody, V domains shown, Fully human IgG1 kappa from HuMab mice; also called 2 µl 1) VH: EVQLVQSGGDLVHPGGSLRLSCVGSGFTFSHYPLHWVRQAPGKGLEWISGIHTGGGTYYTDSVKGRFTISSDNAKNSLYLQMNTLRAEDMAVYYCARGRNSFDYWGQGTLVIVSS VL: DIQMTQSPSSLSASVGDRVTITCRASQGISSWLAWYQQKPEKAPKSLIYAASSLQSGVPSRFSGSGSGTDFTLTISSLQSEDFATYYCQQYNSYPPTFGQGTRLEIKR")
"453000 M⁻¹ s⁻¹"
>>> value_measured("22B3 anti-OPGL antibody (antibody, human IgG1, kappa, V domains shown, Fully human IgG1 kappa from HuMab mice) VH: EVQLVQSGGGLVHPGGSLRLSCEGSGFTFSSNGMHWVRQTPGKGLEWVSGIGTAGGTYYADSVKGRFTISRDNVKKSLYLQMNSLRAEDMAIYYCVRKNWGWFDPWGQGALVTVSS VL: EIVLTQSPATLSLSPGERATLSCRASQSVNSYLAWFQQKPGQAPRLLIYDASNRATGIPARFSGSGSGTDFTLTISSLEPEDFAIYYCQQRSNWPPFTFGQGTKLEIKR")
"1.9e+06 M⁻¹ s⁻¹"
